Organism: Rattus norvegicus
Assay summary: DrugMatrix - Regimen: Daily Repeat
Type: toxicity, organism-based, Sprague-Dawley
Set-up: regimen Daily Repeat, gender Male, age 6-8 weeks
Applied conditions: in vivo, po, 0 mg/kg, 72 h, tissue Plasma, route oral GAVAGE, dose level Control, time 3 day, […]
Property name: LIPASE (u/L)
Entry rule: numbers only, all in u/L.

Sample answers from the record:
>  <Compound>
S=C=Nc1cccc2ccccc12 [1-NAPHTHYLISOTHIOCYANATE]

>  <Unit abbreviation>
u/L

>  <LIPASE>
10.33

$$$$
>  <Compound>
CC(C)(Oc1ccc(C2CCCc3ccccc32)cc1)C(=O)O (stereo not given)

>  <Unit abbreviation>
u/L

>  <LIPASE>
11.17

$$$$
>  <Compound>
C[C@]12CC[C@@H]3c4ccc(O)cc4CC[C@H]3[C@@H]1CC[C@@H]2O

>  <Unit abbreviation>
u/L

>  <LIPASE>
11.83

$$$$
>  <Compound>
COCCOC(=O)C1=C(C)NC(C)=C(C(=O)OC(C)C)C1c1cccc([N+](=O)[O-])c1 (stereo not given)

>  <Unit abbreviation>
u/L

>  <LIPASE>
9.5

$$$$

# ---- query compound ----
Ask | Give the measured LIPASE of C[C@H]1O[C@@H](O[C@H]2[C@@H](O)C[C@H](O[C@H]3[C@@H](O)C[C@H](O[C@H]4CC[C@@]5(C)[C@H](CC[C@@H]6[C@@H]5CC[C@]5(C)[C@@H](C7=CC(=O)OC7)CC[C@]65O)C4)O[C@@H]3C)O[C@@H]2C)C[C@H](O)[C@@H]1O .
Reply | 9.67

====

Species: Rattus norvegicus
Assay summary: DrugMatrix - Regimen: Daily Repeat
Type: toxicity, organism-based, Sprague-Dawley
Design: regimen Daily Repeat, gender Male, age 6-8 weeks
Applied conditions: in vivo, po, 1500 mg/kg, 120 h, tissue Blood, route oral GAVAGE, dose level High, time 5 day, vehicle .5 % CMC
Property name: PLATELET COUNT (x10E3/uL)
Report the value in x10E3/uL with no unit label.

Example cases with answers are listed next.
>  <Compound>
CO[C@H]1/C=C/O[C@@]2(C)Oc3c(C)c(O)c4c(c3C2=O)C2=NC3(CCN(CC(C)C)CC3)NC2=C(NC(=O)/C(C)=C\C=C\[C@H](C)[C@H](O)[C@@H](C)[C@@H](O)[C@@H](C)[C@H](OC(C)=O)[C@@H]1C)C4=O

>  <Unit abbreviation>
x10E3/uL

>  <PLATELET COUNT>
1196.5

$$$$
>  <Compound>
Cc1ccc(S(=O)(=O)NC(=O)NN2CC3CCCC3C2)cc1 (configuration not stated) [GLICLAZIDE]

>  <Unit abbreviation>
x10E3/uL

>  <PLATELET COUNT>
1131.67

$$$$
>  <Compound>
O=C(N[C@H](CO)[C@H](O)c1ccc([N+](=O)[O-])cc1)C(Cl)Cl

>  <Unit abbreviation>
x10E3/uL

>  <PLATELET COUNT>
1090

$$$$
>  <Compound>
Cc1cc(=O)n(-c2ccccc2)n1C [ANTIPYRINE]

>  <Unit abbreviation>
x10E3/uL

>  <PLATELET COUNT>
1282

$$$$
>  <Compound>
CNC(=C[N+](=O)[O-])NCCSCc1ccc(CN(C)C)o1

>  <Unit abbreviation>
x10E3/uL

>  <PLATELET COUNT>
1282

$$$$
>  <Compound>
NC(=O)c1cnccn1 [PYRAZINAMIDE]

>  <Unit abbreviation>
x10E3/uL

>  <PLATELET COUNT>
1142.67

$$$$

Read the next record carefully.
Ask | # get_value(readout='PLATELET COUNT', item= C[C@]1(Cn2ccnn2)[C@H](C(=O)O)N2C(=O)C[C@H]2S1(=O)=O )
Reply | 1185.67

====

Species on record: Rattus norvegicus
Assay summary: DrugMatrix - Regimen: Daily Repeat
Type: toxicity, organism-based, Sprague-Dawley
Set-up: regimen Daily Repeat, gender Male, age 6-8 weeks
Applied conditions: in vivo, po, 0 mg/kg, 72 h, tissue Plasma, route oral GAVAGE, dose level Control, time 3 day, vehicle 100 % WATER
Catalogue of POTASSIUM readings, one per entry.
Number in MEQ/L, nothing else.

>  <Compound>
COC(=O)C1=C(C)NC(C)=C(C(=O)OCC(C)C)C1c1ccccc1[N+](=O)[O-] (centres undefined)

>  <Unit abbreviation>
MEQ/L

>  <POTASSIUM>
5.85

$$$$
>  <Compound>
CC(C)(C)c1ccc(C(=O)CCCN2CCC(OC(c3ccccc3)c3ccccc3)CC2)cc1

>  <Unit abbreviation>
MEQ/L

>  <POTASSIUM>
5.91

$$$$
>  <Compound>
Cc1ncc([N+](=O)[O-])n1CCO

>  <Unit abbreviation>
MEQ/L

>  <POTASSIUM>
5.99

$$$$
>  <Compound>
Nc1ccn([C@@H]2CS[C@H](CO)O2)c(=O)n1

>  <Unit abbreviation>
MEQ/L

>  <POTASSIUM>
6.25

$$$$
>  <Compound>
C[C@@H]1C[C@@H]([C@H](O)CC2CC(=O)NC(=O)C2)C(=O)[C@@H](C)C1 [CYCLOHEXIMIDE]

>  <Unit abbreviation>
MEQ/L

>  <POTASSIUM>
7.01

$$$$

Ask | Fill in: POTASSIUM of CC(C)C[C@H](NC(=O)[C@@H](O)[C@H](N)Cc1ccccc1)C(=O)O is ___
Reply | 6.78

Ask | Could you tell me which POTASSIUM is on file for C[N+](C)(C)CCO.[Cl-] [CHOLINE CHLORIDE] ?
Reply | 6.8

Ask | For the compound shown here, ClC(Cl)Cl [CHLOROFORM] , give the reported POTASSIUM.
Reply | 5.99

Ask | // query POTASSIUM value for entry CC(C)NCC(O)COc1cccc2ccccc12 (centres undefined)
Reply | 6.35

====

Species: Rattus norvegicus
Assay summary: DrugMatrix - Regimen: Daily Repeat
Format: toxicity, organism-based, Sprague-Dawley
Design: regimen Daily Repeat, gender Male, age 6-8 weeks
Applied conditions: in vivo, po, 10 mg/kg, 72 h, tissue Blood, route oral GAVAGE, dose level Low, time 3 day, […]
As shown below, each of these compounds has a reported NEUTROPHIL value.
Hi! Could you send only the number? It should be in %, unit omitted.

Below, 3 compounds whose answers are already recorded.
>  <Compound>
CC(C)CC(N(C)C)C1(c2ccc(Cl)cc2)CCC1 (centres undefined)

>  <NEUTROPHIL, %>
8.33

$$$$
>  <Compound>
COc1ccc2cc([C@H](C)C(=O)O)ccc2c1

>  <NEUTROPHIL, %>
6.67

$$$$
>  <Compound>
COCCOC(=O)C1=C(C)NC(C)=C(C(=O)OC(C)C)C1c1cccc([N+](=O)[O-])c1 (centres undefined)

>  <NEUTROPHIL, %>
7.67

$$$$

Ask | Value lookup for NEUTROPHIL; key = CCOC(=O)C1=C(C)NC(C)=C(C(=O)OC)C1c1cccc([N+](=O)[O-])c1 (centres undefined)
Reply | 9.33

====

Organism: Rattus norvegicus
Assay summary: DrugMatrix - Regimen: Daily Repeat
Type: toxicity, organism-based, Sprague-Dawley
Design: regimen Daily Repeat, gender Male, age 6-8 weeks
Applied conditions: in vivo, po, 0 mg/kg, 120 h, tissue Blood, route oral GAVAGE, dose level Control, time 5 day, vehicle .5 % CMC
Property name: PLATELET COUNT
// return the numeric value with its unit appended

Examples with their reported PLATELET COUNT follow.
>  <Compound>
N=C(N)NC(=O)c1nc(Cl)c(N)nc1N [AMILORIDE]

>  <PLATELET COUNT>
1177 x10E3/uL

$$$$
>  <Compound>
O=[N+]([O-])c1ccccc1 [NITROBENZENE]

>  <PLATELET COUNT>
1182.33 x10E3/uL

$$$$
>  <Compound>
O=C1CCC(N2C(=O)c3ccccc3C2=O)C(=O)N1 (stereo not given) [THALIDOMIDE]

>  <PLATELET COUNT>
1298 x10E3/uL

$$$$

Ask | Endpoint output: PLATELET COUNT of CN1C(=O)COc2c(C(=O)NC3CN4CCC3CC4)cc(Cl)cc21 (stereo not given) [AZASETRON] . Value?
Reply | 1211.67 x10E3/uL

Ask | Query: PLATELET COUNT; subject: Cc1onc(-c2ccccc2)c1-c1ccc(S(N)(=O)=O)cc1 [VALDECOXIB]
Reply | 1267 x10E3/uL

====

Below: a set of entries, each annotated with reported POTASSIUM.
Organism: Rattus norvegicus
Assay summary: DrugMatrix - Regimen: Daily Repeat
Format: toxicity, organism-based, Sprague-Dawley
Parameters: regimen Daily Repeat, gender Male, age 6-8 weeks
Applied conditions: in vivo, po, 0 mg/kg, 72 h, tissue Plasma, route oral GAVAGE, dose level Control, time 3 day, […]
Number first, unit second: that is the form wanted.

These recorded examples may help you get a feel for the data.
>  <Compound>
COCCOC(=O)C1=C(C)NC(C)=C(C(=O)OC(C)C)C1c1cccc([N+](=O)[O-])c1 (stereo not given)

>  <POTASSIUM>
6.38 MEQ/L

$$$$
>  <Compound>
CCCCCCCCc1ccc(O)cc1

>  <POTASSIUM>
5.91 MEQ/L

$$$$

Ask | Record request: POTASSIUM value, item CC(=O)Nc1ccc(O)cc1
Reply | 5.78 MEQ/L

Ask | Please give the measured POTASSIUM for this compound: O=C(O)Cc1ccccc1Nc1c(Cl)cccc1Cl
Reply | 6.26 MEQ/L

Ask | I have this compound here, Cc1cccc(Nc2ccncc2S(=O)(=O)NC(=O)NC(C)C)c1 [TORSEMIDE] , and I need its recorded POTASSIUM.
Reply | 5.56 MEQ/L
